- experimental target: human C5aR (CD88) (human, UniProt P21730 1-350)
- Sequence (looked up): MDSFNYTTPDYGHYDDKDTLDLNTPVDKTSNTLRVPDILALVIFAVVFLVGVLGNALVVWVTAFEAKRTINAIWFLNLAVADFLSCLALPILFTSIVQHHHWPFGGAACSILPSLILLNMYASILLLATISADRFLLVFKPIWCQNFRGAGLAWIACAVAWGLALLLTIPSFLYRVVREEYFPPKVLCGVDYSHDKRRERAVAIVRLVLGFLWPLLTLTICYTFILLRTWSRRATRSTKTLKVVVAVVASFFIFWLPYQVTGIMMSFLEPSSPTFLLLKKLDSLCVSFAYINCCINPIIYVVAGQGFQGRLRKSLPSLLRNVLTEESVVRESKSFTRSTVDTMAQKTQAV
- experiment description: cell-based or functional assay
measured property: IC50 activity group, enzyme release assay

>>> df
                                  substance    result
0  Ac-Phe-Ech-Pro-cha-Bta-Phe-NH2 (peptide)  < 200 nM
1  Ac-Phe-Bta-Aze-cha-Bta-Phe-NH2 (peptide)   < 50 nM
2  Ac-Phe-Orn-Pro-hle-Bta-Phe-NH2 (peptide)   < 20 nM
3  Ac-Phe-Orn-Pro-hle-Pff-Cha-NH2 (peptide)  < 200 nM
4  Ac-Phe-Orn-Pro-Cha-Bta-NH-NBn-CO-NH2 (peptide)  < 200 nM
5  Ac-Phe-Orn-Pro-ctb-Pff-Phe-NH2 (peptide)   < 50 nM

What measured IC50 activity group, enzyme release assay goes with Ac-Phe-Orn-Aze-cha-Bta-Phe-NH2 (peptide) ? < 20 nM

What measured IC50 activity group, enzyme release assay goes with Ac-Phe-Orn-Pro-hle-Eaa-Phe-NH2 (peptide) ? < 200 nM

###

Listed substances paired with reported IC50 activity group, enzyme release assay
- experimental target: human C5aR (CD88) (human, UniProt P21730 1-350)
- Sequence (looked up): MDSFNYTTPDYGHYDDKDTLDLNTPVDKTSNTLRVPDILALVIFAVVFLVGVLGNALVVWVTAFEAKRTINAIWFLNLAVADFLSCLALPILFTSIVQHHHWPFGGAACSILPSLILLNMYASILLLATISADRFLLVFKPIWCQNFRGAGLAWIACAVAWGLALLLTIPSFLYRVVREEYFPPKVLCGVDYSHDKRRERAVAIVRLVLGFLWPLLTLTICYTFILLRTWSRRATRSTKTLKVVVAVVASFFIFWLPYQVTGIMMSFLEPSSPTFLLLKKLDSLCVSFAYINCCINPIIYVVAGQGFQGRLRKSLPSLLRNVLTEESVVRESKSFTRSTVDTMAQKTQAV
- experiment description: cell-based or functional assay

>>> df
                                  substance    result
0  Ac-Phe-Orn-Pro-hle-Ocf-Phe-NH2 (peptide)  < 200 nM
1  Ac-Arg-Phe-Orn-Aze-cha-Bta-Phe-NH2 (peptide)   < 50 nM
2  Ac-Phe-Orn-Pro-hle-Mcf-2Ni-NH2 (peptide)  < 200 nM

What measured IC50 activity group, enzyme release assay goes with Ac-Phe-Orn-Ser-cha-Bta-Phe-NH2 (peptide) ? < 50 nM

What measured IC50 activity group, enzyme release assay goes with Ac-Phe-Fco-Pro-cha-Bta-Phe-NH2 (peptide) ? < 50 nM

What measured IC50 activity group, enzyme release assay goes with Ac-Phe-Orn-Pro-cha-Bta-Mff-NH2 (peptide) ? < 20 nM

What measured IC50 activity group, enzyme release assay goes with Ac-Phe-Fcp-Aze-cha-Bta-Phe-NH2 (peptide) ? < 50 nM

What measured IC50 activity group, enzyme release assay goes with Ac-Phe-Har-Pro-cha-Bta-Phe-NH2 (peptide) ? < 50 nM

What measured IC50 activity group, enzyme release assay goes with Ac-Gly-Phe-Orn-Aze-hch-Bta-Phe-NH2 (peptide) ? < 200 nM

What measured IC50 activity group, enzyme release assay goes with Ac-Phe-Orn-Pro-hle-Dff-Phe-NH2 (peptide) ? < 200 nM

What measured IC50 activity group, enzyme release assay goes with Ac-Phe-Orn-Pro-cha-Bta-Phe-NH2 (peptide) ? < 50 nM
